target: T1, human programmed cell death protein 1 (hPD-1) C93S (aa 24-167) (Homo sapiens, UniProt Q15116, C93S); assay: SPR; Carterra LSA; Fab from the ammonium sulfate precipitate of the culture supernatant immobilised on a NiHC200M chip; hPD-1 (1-1024 nM) or mPD-1-Fc (4-1024 nM) as analyte, fourfold dilution series, no regeneration; HBS-EP pH 7.4, 25 °C; medians over the spots of a construct, KD = koff/kon; settings: one partner purified
T1 construct: made as a fusion with a TEV site and human Fc; the Fc was cut off with TEV protease; source: Expi293F, purified (Protein A, TEV cleavage of Fc, SEC; monomer fractions); not shown: Fc (human), C-terminal, cleaved
T1 sequence (Q15116 24-167 C93S): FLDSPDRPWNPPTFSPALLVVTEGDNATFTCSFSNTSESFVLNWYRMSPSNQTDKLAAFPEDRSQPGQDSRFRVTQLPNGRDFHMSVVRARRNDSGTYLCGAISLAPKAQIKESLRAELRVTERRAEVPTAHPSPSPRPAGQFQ
Experimental endpoint: kon (M⁻¹ s⁻¹)
Numbers only, in M⁻¹ s⁻¹.

Please review the following examples before continuing.
Binder	kon [M⁻¹ s⁻¹]
toripalimab Fab L.F94Y (Fab, V domains shown, as the heavy chain of Sm3; light chain of Sm3 with this change; numbers count from the chain's first residue; source: Brevibacillus, culture supernatant (ammonium sulfate precipitate); not shown: 6xHis, C-terminal, kept; 6xHN, C-terminal, kept) VH: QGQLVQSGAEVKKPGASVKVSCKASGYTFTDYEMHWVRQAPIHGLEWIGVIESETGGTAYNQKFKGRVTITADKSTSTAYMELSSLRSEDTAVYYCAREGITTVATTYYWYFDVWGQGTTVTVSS VL: DVVMTQSPLSLPVTLGQPASISCRSSQSIVHSNGNTYLEWYLQKPGQSPQLLIYKVSNRFSGVPDRFSGSGSGTDFTLKISRVEAEDVGVYYCYQGSHVPLTFGQGTKLEIK	10300
toripalimab Fab H.T102A (Fab, V domains shown, heavy chain of Sm3 with this change; numbers count from the chain's first residue; as the light chain of Sm3; source: Brevibacillus, culture supernatant (ammonium sulfate precipitate); not shown: 6xHis, C-terminal, kept; 6xHN, C-terminal, kept) VH: QGQLVQSGAEVKKPGASVKVSCKASGYTFTDYEMHWVRQAPIHGLEWIGVIESETGGTAYNQKFKGRVTITADKSTSTAYMELSSLRSEDTAVYYCAREGIATVATTYYWYFDVWGQGTTVTVSS VL: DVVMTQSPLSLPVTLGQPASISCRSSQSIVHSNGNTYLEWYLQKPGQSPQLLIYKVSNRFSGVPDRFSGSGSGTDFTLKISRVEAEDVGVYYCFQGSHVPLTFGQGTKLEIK	6130
toripalimab Fab L.L101N (Fab, V domains shown, as the heavy chain of Sm3; light chain of Sm3 with this change; numbers count from the chain's first residue; source: Brevibacillus, culture supernatant (ammonium sulfate precipitate); not shown: 6xHis, C-terminal, kept; 6xHN, C-terminal, kept) VH: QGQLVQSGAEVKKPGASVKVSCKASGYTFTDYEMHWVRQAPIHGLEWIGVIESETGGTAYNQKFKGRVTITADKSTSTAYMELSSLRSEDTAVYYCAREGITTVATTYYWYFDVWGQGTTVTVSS VL: DVVMTQSPLSLPVTLGQPASISCRSSQSIVHSNGNTYLEWYLQKPGQSPQLLIYKVSNRFSGVPDRFSGSGSGTDFTLKISRVEAEDVGVYYCFQGSHVPNTFGQGTKLEIK	8160
toripalimab Fab L.K55Y (Fab, V domains shown, as the heavy chain of Sm3; light chain of Sm3 with this change; numbers count from the chain's first residue; source: Brevibacillus, culture supernatant (ammonium sulfate precipitate); not shown: 6xHis, C-terminal, kept; 6xHN, C-terminal, kept) VH: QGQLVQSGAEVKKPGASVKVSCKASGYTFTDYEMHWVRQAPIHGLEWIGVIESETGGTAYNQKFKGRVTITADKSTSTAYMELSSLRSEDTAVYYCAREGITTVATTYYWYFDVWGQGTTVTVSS VL: DVVMTQSPLSLPVTLGQPASISCRSSQSIVHSNGNTYLEWYLQKPGQSPQLLIYYVSNRFSGVPDRFSGSGSGTDFTLKISRVEAEDVGVYYCFQGSHVPLTFGQGTKLEIK	9280

INPUT: Consider the binder toripalimab Fab L.Q27A (Fab, V domains shown, as the heavy chain of Sm3; light chain of Sm3 with this change; numbers count from the chain's first residue; source: Brevibacillus, culture supernatant (ammonium sulfate precipitate); not shown: 6xHis, C-terminal, kept; 6xHN, C-terminal, kept) VH: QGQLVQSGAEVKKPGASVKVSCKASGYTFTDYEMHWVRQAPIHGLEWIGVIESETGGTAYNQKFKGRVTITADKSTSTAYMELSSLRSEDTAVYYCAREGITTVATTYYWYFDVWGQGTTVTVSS VL: DVVMTQSPLSLPVTLGQPASISCRSSASIVHSNGNTYLEWYLQKPGQSPQLLIYKVSNRFSGVPDRFSGSGSGTDFTLKISRVEAEDVGVYYCFQGSHVPLTFGQGTKLEIK and give its measured kon.
OUTPUT: 12000
